Cited source for all entries: the METLIN SMRT retention time set (Domingo-Almenara et al. 2019)

Assay remarks: gradient 5% acetonitrile 3 min, to 50% in 2 min, to 85% in 15 min, held 3 min, 100 µL/min
Run conditions: column: Zorbax Extend-C18 2.1 x 50 mm; eluents: water / acetonitrile, 0.1% formic acid
Observation type: RP-LC retention time (s)

Some solved entries appear below for comparison.
[
  {
    "Compound": "COc1ccc(-c2cc(N)n[nH]2)c(OC)c1",
    "RP-LC retention time / s": 595
  },
  {
    "Compound": "COc1ccc(C(=O)NCC(=O)Nc2nc3ccccc3[nH]2)c(C)c1",
    "RP-LC retention time / s": 630
  },
  {
    "Compound": "Cc1cc2nn(CC(=O)Nc3ccc(F)c(F)c3)c(=O)n2c(Nc2ccc(F)c(C)c2)n1",
    "RP-LC retention time / s": 1090
  },
  {
    "Compound": "Cc1ccc(-c2noc(C3CCCN3C(=O)CNC(=O)C(c3ccccc3)c3ccccc3)n2)cc1 (centres undefined)",
    "RP-LC retention time / s": 1100
  },
  {
    "Compound": "CCc1cccc(NC(=O)C2CCN(S(=O)(=O)c3cc(C(=O)N4CCCC4)n(C)c3)CC2)c1",
    "RP-LC retention time / s": 872
  },
  {
    "Compound": "CCCNC(=O)C1CCCN(c2cc(=O)n(C)c(=O)n2C)C1 (centres undefined)",
    "RP-LC retention time / s": 597
  },
  {
    "Compound": "C=CCN(Cc1nc(-c2ccc(C)cc2)no1)C(=O)Nc1ccc(C)cc1",
    "RP-LC retention time / s": 1100
  },
  {
    "Compound": "Cc1ccc(N2CCN(C(=O)c3cn4cccc(C)c4n3)CC2)cc1",
    "RP-LC retention time / s": 682
  },
  {
    "Compound": "COc1cccc(-c2noc(-c3nn(-c4ccc(F)c(F)c4)ccc3=O)n2)c1OC",
    "RP-LC retention time / s": 796
  },
  {
    "Compound": "Cc1ccc2c(c1)C(O)(CC(=O)c1ccc(F)cc1)C(=O)N2 (centres undefined)",
    "RP-LC retention time / s": 717
  }
]

1. Cc1ccc(NC(=O)c2ccccc2[N+](=O)[O-])c(C(=O)c2ccccc2)c1
2. CCOC(=O)c1ccc(NC(=O)N2CCN(CC)c3ncccc32)cc1
Recorded RP-LC retention time values differ for 1 and 2 ; which one is higher? Refer to your chosen entry by its label in the reply.
1
(1: 955 s, 2: 640 s)

====

Assay remarks: gradient 5% acetonitrile 3 min, to 50% in 2 min, to 85% in 15 min, held 3 min, 100 µL/min
Run conditions: column: Zorbax Extend-C18 2.1 x 50 mm; eluents: water / acetonitrile, 0.1% formic acid
Observation type: RP-LC retention time (s)

Some solved entries appear below for comparison.
[
  {
    "Compound": "Cc1nn(C(C)C(=O)NCCCN2CCN(C)CC2)c(=O)c2c(C)n(-c3ccccc3)nc12 (stereo not given)",
    "Readout unit": "s",
    "RP-LC retention time": 592
  },
  {
    "Compound": "COc1ccc(-c2nc3cccnc3n2C2CCN(C(=O)NCC(C)C)C2)cc1 (stereo not given)",
    "Readout unit": "s",
    "RP-LC retention time": 680
  },
  {
    "Compound": "CSc1ccc(CNC(=O)c2nnc(-c3ccc(S(=O)(=O)N(C)C)cc3)o2)cc1",
    "Readout unit": "s",
    "RP-LC retention time": 889
  },
  {
    "Compound": "COC(=O)c1ccccc1NC(=O)Cn1c(=O)c(CCC(=O)NCC(C)C)nc2ccccc21",
    "Readout unit": "s",
    "RP-LC retention time": 878
  },
  {
    "Compound": "COC(=O)c1ccccc1NC(=O)CCn1c(=O)oc2ccccc21",
    "Readout unit": "s",
    "RP-LC retention time": 825
  }
]

P. O=C(Nc1ccc(OC(F)(F)F)cc1)C(=O)Nc1ccccc1[N+](=O)[O-]
Q. CC(C)NC(=O)c1ccc(OCC2CCCN2C(=O)c2ccco2)cc1 (stereo not given)
# return whichever of P and Q has the smaller RP-LC retention time Refer to your chosen entry by its label in the reply.
Q
(Q: 757 s, P: 1090 s)

====

Assay remarks: gradient 5% acetonitrile 3 min, to 50% in 2 min, to 85% in 15 min, held 3 min, 100 µL/min
Run conditions: column: Zorbax Extend-C18 2.1 x 50 mm; eluents: water / acetonitrile, 0.1% formic acid
Observation type: RP-LC retention time (s)

[
  {
    "Compound": "CCn1cc(-c2nc(CC(=O)NCc3ccccc3)cs2)c2cccnc21",
    "RP-LC retention time [s]": 840
  },
  {
    "Compound": "O=C(CN(C(=O)c1ccc(F)c(F)c1)C1CCCCC1)N1CCNCC1",
    "RP-LC retention time [s]": 635
  },
  {
    "Compound": "Cc1noc(C)c1S(=O)(=O)N1CC(c2nc(CCOCc3ccccc3)no2)C1",
    "RP-LC retention time [s]": 979
  },
  {
    "Compound": "O=C(NC1CCN(c2cc(-c3cccs3)[nH]n2)C1)c1cccc(OC(F)(F)F)c1 (centres undefined)",
    "RP-LC retention time [s]": 828
  },
  {
    "Compound": "Cc1ccccc1CNC(=O)C1(C)CCN(S(=O)(=O)c2ccc(F)cc2)CC1",
    "RP-LC retention time [s]": 925
  }
]

I. CCS(=O)(=O)Nc1ccc(-c2noc(COc3ccccc3)n2)cc1
II. CCN1CCN(C(=O)C2Cc3cc(S(=O)(=O)N4CCCCC4)ccc3N2C(C)=O)CC1 (centres undefined)
Recorded RP-LC retention time values differ for I and II ; which one is higher? Refer to your chosen entry by its label in the reply.
I
(I: 923 s, II: 601 s)

====

Assay remarks: gradient 5% acetonitrile 3 min, to 50% in 2 min, to 85% in 15 min, held 3 min, 100 µL/min
Run conditions: column: Zorbax Extend-C18 2.1 x 50 mm; eluents: water / acetonitrile, 0.1% formic acid
Observation type: RP-LC retention time (s)

Some solved entries appear below for comparison.
[
  {
    "Compound": "CCOc1ccc(-c2nc(Cn3nnc(C(=O)NCc4ccc(OC)cc4)c3N)c(C)o2)cc1OC",
    "Reported result": 922
  },
  {
    "Compound": "Cc1ccc(N2CC(c3noc(-c4ccc(N(C)C)cc4)n3)CC2=O)cc1 (centres undefined)",
    "Reported result": 980
  },
  {
    "Compound": "Cc1ccc(-c2cn3c(CC(=O)NCc4ccc(Cl)cc4)csc3n2)cc1C",
    "Reported result": 892
  },
  {
    "Compound": "Cc1cc(C)n2c(Nc3ccc(C(C)C)cc3)c(-c3cccc(Br)c3)nc2n1",
    "Reported result": 1000
  },
  {
    "Compound": "CCOC(=O)c1cncn1C(C)c1ccccc1 (centres undefined)",
    "Reported result": 774
  },
  {
    "Compound": "c1ccc(-c2n[nH]c(C3CCCCN3)n2)cc1 (centres undefined)",
    "Reported result": 574
  }
]

I. O=C1C(=O)N(Cc2ccc(C(=O)N3CCCCC3)cc2)CCN1Cc1ccc(F)cc1
II. CCCCN(CC)S(=O)(=O)c1ccc(C(=O)Nc2nc3c(s2)COc2ccccc2-3)cc1
Recorded RP-LC retention time values differ for I and II ; which one is higher? Refer to your chosen entry by its label in the reply.
II

P. CN1C(=O)[C@H]2CN(Cc3ccc(F)c(Cl)c3)C[C@H]2C1=O
Q. Cc1ccc(-n2nc(N3CCCC(C(=O)NCc4ccccc4)C3)ccc2=O)cc1Cl (centres undefined)
Recorded RP-LC retention time values differ for P and Q ; which one is higher? Refer to your chosen entry by its label in the reply.
Q
(Q: 901 s, P: 623 s)

P. Cc1cc(C)cc(N2C(=O)CN(C3CCCC3)[C@H]3CS(=O)(=O)C[C@H]32)c1
Q. CCCCOc1ccc(C(=O)N2CCCC2c2nc(-c3ccccc3)no2)cc1 (centres undefined)
# return whichever of P and Q has the smaller RP-LC retention time Refer to your chosen entry by its label in the reply.
P

A. CCOC(=O)c1nc(Nc2ccc(F)cc2F)c2ccccc2n1
B. CCCN1CCN(C(=O)c2ccc(-c3ccc(N4CCSCC4)nc3)cc2)CC1
# return whichever of A and B has the smaller RP-LC retention time Refer to your chosen entry by its label in the reply.
B
(B: 560 s, A: 845 s)

====

Assay remarks: gradient 5% acetonitrile 3 min, to 50% in 2 min, to 85% in 15 min, held 3 min, 100 µL/min
Run conditions: column: Zorbax Extend-C18 2.1 x 50 mm; eluents: water / acetonitrile, 0.1% formic acid
Observation type: RP-LC retention time (s)

Some solved entries appear below for comparison.
[
  {
    "Molecule": "Clc1ccc(-c2ccc(CNc3nn[nH]n3)o2)c(Cl)c1",
    "Observation type": "RP-LC retention time",
    "Readout unit": "s",
    "Reported result": 845
  },
  {
    "Molecule": "CCOC(=O)NCCS(=O)(=O)N1CCN(c2ccc(OC)cc2)CC1",
    "Observation type": "RP-LC retention time",
    "Readout unit": "s",
    "Reported result": 695
  },
  {
    "Molecule": "Cc1ccc(S(=O)(=O)CC(=O)Nc2nc(-c3ccc4c(c3)OCO4)cs2)cc1",
    "Observation type": "RP-LC retention time",
    "Readout unit": "s",
    "Reported result": 924
  },
  {
    "Molecule": "O=C(NCCc1ccco1)C1CCCN(C(=O)c2cccn2-c2cccnc2)C1 (centres undefined)",
    "Observation type": "RP-LC retention time",
    "Readout unit": "s",
    "Reported result": 660
  },
  {
    "Molecule": "O=C(c1ccc2ncnc(N3CCCC3)c2c1)N1CCN(c2ccccc2F)CC1",
    "Observation type": "RP-LC retention time",
    "Readout unit": "s",
    "Reported result": 659
  },
  {
    "Molecule": "O=C(NCc1ccc2c(c1)OCO2)C1CCCN(c2ccnc(-c3ccc(F)cc3)n2)C1 (centres undefined)",
    "Observation type": "RP-LC retention time",
    "Readout unit": "s",
    "Reported result": 660
  }
]

P. COc1cc(Cl)ccc1C(=O)N1CCCN(C2CCN(CC3CC3)C2=O)CC1 (centres undefined)
Q. COCCCNS(=O)(=O)c1ccccc1-c1nc(-c2cccc(F)c2)no1
Recorded RP-LC retention time values differ for P and Q ; which one is higher? Refer to your chosen entry by its label in the reply.
Q

1. CCOc1ccc(CC(=O)NC(CC(C)C)C(=O)Nc2nc3ccccc3[nH]2)cc1OCC (centres undefined)
2. Cc1nc(N2CCN(c3ncccn3)CC2)nc2c1C(=O)CC(/C=C/c1ccccc1)C2 (centres undefined)
Recorded RP-LC retention time values differ for 1 and 2 ; which one is higher? Refer to your chosen entry by its label in the reply.
2
(2: 1290 s, 1: 758 s)

1. CCC(=O)N1CCCc2ccc(NC(=O)c3ccco3)cc21
2. Cc1ccc(S(=O)(=O)Cc2ccc(-c3nc(-c4ccc5oc(C)nc5c4)no3)cc2)cc1
# return whichever of 1 and 2 has the smaller RP-LC retention time Refer to your chosen entry by its label in the reply.
1

a. Cc1ccc(C(=O)N2CCC3(CC2)N(C)C(=O)CS3(=O)=O)s1
b. O=C(Nc1ccc(Cl)cc1)c1cccn1Cc1noc(C2CC2)n1
# return whichever of a and b has the smaller RP-LC retention time Refer to your chosen entry by its label in the reply.
a
